Target: hSTING (Homo sapiens, UniProt Q86WV6, G230A/H232R/R293Q/R71H)
Construct: host or cells: THP1-Dual KO-IFNAR2 cells
Sequence (Q86WV6 whole entry R71H/G230A/H232R/R293Q): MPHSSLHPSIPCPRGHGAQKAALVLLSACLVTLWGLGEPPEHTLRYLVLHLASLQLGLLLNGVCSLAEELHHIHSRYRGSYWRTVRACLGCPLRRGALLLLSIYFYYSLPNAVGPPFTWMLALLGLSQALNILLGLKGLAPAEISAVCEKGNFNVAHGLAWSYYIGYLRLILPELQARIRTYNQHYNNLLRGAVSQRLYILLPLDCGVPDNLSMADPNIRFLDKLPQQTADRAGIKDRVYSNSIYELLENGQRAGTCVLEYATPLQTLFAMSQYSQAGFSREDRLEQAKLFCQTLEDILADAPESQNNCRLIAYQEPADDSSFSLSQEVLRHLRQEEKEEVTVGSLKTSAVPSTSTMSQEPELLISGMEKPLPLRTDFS
Assay: STING reporter assay (luciferase) in THP1-Dual KO-IFNAR2 cells stimulated with 2′3′cGAMP
Format: cell-based
Conditions: 2′3′cGAMP 15 μM, 24 h, class symbols
pEC50: −log10 of the molar value.
Give pEC50 for every item shown.

Give the reported pEC50 for O=C(Nc1cnc(N2CCN(CC(F)(F)F)CC2)c(Cl)c1)Nc1c[nH]c2cccnc12 (system: hSTING (Homo sapiens, UniProt Q86WV6, G230A/H232R/R293Q/R71H)).
6.00 to 6.70

Form entry - test system: hSTING (Homo sapiens, UniProt Q86WV6, G230A/H232R/R293Q/R71H); read-out: pEC50; compound: COc1ccc2[nH]cc(NC(=O)Nc3cnc(N4CC(F)(F)C4)c(F)c3)c2n1
5.30 to 6.00

Under hSTING (Homo sapiens, UniProt Q86WV6, G230A/H232R/R293Q/R71H): pEC50 value of COc1cnc2[nH]cc(NC(=O)Nc3cnc(C4CCC(F)(F)CC4)c(C)c3)c2c1 ?
5.30 to 6.00

Enter reported pEC50 observed with hSTING (Homo sapiens, UniProt Q86WV6, G230A/H232R/R293Q/R71H) for O=C(Nc1cnc(N2CC3(C2)CC(F)(F)C3)c(Cl)c1)Nc1c[nH]c2cccnc12
6.00 to 6.70

Value wanted: pEC50 (hSTING (Homo sapiens, UniProt Q86WV6, G230A/H232R/R293Q/R71H)) of entry COc1ccc2[nH]cc(NC(=O)Nc3cnc(N4CCC5(CC4)CC(F)(F)C5)c(Cl)c3)c2n1
6.00 to 6.70

# query: pEC50 | item O=C(Nc1cnc(N2CCC(F)(F)CC2)c(Cl)c1)Nc1c[nH]c2ccc(Br)nc12 | system: hSTING (Homo sapiens, UniProt Q86WV6, G230A/H232R/R293Q/R71H)
6.70 to 7.40

Param readout = pEC50; param system = hSTING (Homo sapiens, UniProt Q86WV6, G230A/H232R/R293Q/R71H); param query = O=C(Nc1ccc(C2CCC(F)(F)CC2)nc1)Nc1c[nH]c2ccc(OCCC(F)(F)F)nc12 ; response: value
5.30 to 6.00

Provide the documented pEC50 with hSTING (Homo sapiens, UniProt Q86WV6, G230A/H232R/R293Q/R71H) as the system for O=C(Nc1ccc(C2CCC(F)(F)CC2)nc1)Nc1c[nH]c2ncc(-c3cccc(CO)c3)cc12
4.00 to 5.30
